observable: melting point

Would you please look over these solved cases?
# compound, melting point
measured = [
    ("Fc1ccccc1CO[C@H]1CO[C@@H](c2ccccc2)OC1", "65 to 67 °C"),
    ("CN(Cc1cccc(-c2ccc(CC3SC(=O)NC3=O)cc2)c1)C(=O)c1ccc(-c2ccc(O)cc2)cc1 (stereo unspecified)", "211 to 213 °C"),
    ("Cn1cc(C2=C(c3cccc4ccccc34)C(=O)NC2=O)c2ccccc21", "258 to 260 °C"),
    ("N#CN=c1ccccn1Cc1ccccc1", "139 to 140 °C"),
    ("O=C(NN1CCOCC1)OCCOc1ccc(OCCOC(=O)NN2CCOCC2)cc1", "219 to 221 °C"),
]

Consider the compound shown here: O=C(c1ccccc1CN1CC=CCC1)N1CCN2C(=O)OC(c3ccccc3)(c3ccccc3)C2C1 (stereo unspecified) What is its recorded melting point?
155 to 157 °C

---

observable: melting point

Please review the entries below; each comes with its answer.
# compound, melting point
rows = [
    ("O=C(Cn1cnc2cc(-c3ccc(Cl)cc3)sc2c1=O)c1ccc2c(c1)CCN(C(=O)C(F)(F)F)CC2", "285 to 287 °C"),
    ("CC(=O)Nc1ccc(C=O)cc1Cl", "110 to 113 °C"),
]

The record that follows has no melting point shown yet.
Would you kindly share the measured melting point for CCN1CCN(S(=O)(=O)c2ccc(C(CC3CCCC3)C(=O)Nc3nc4ccc(OC)nc4s3)cc2)CC1 (stereo not drawn) ?
106 to 110 °C

---

Overview of recorded melting point for various molecules

# molecule, reported
rows = [
    ("Cc1ccc(Br)cc1Cn1c(C(F)F)nn(C)c1=O", "108 °C"),
    ("Cc1c(C(=O)O)oc2ccc(Cc3cccnc3)cc12", "223 to 225 °C"),
    ("CCCN1C(=O)C2CC2(c2ccc(N)cc2)C1=O (centres undefined)", "97 °C"),
    ("Cc1csc(C#CCCn2nc3ccccc3n2)n1", "78 to 80 °C"),
    ("CCOC(=O)Cc1ccc2c(c1)CC(NC(C)=O)C2 (centres undefined)", "82 to 84 °C"),
    ("COc1cccc2c3c(c(=O)[nH]c12)CCN3c1ccccc1", "75 to 77 °C"),
]

I would be grateful if you could share the reported melting point for `CN1C(NCc2ccccc2)=Nc2ccncc2S1(=O)=O` .
142 to 146 °C

Which melting point is listed for `Cc1cc(O)c(Cl)c(O)c1` ?
72 °C

Can you look up the measured melting point of `CS(=O)(=O)NCCCn1cnc(-c2ccc(F)cc2)c1-c1ccncc1` for me?
186 to 187 °C

Consider the molecule `O=C1CC[C@@H](C(=O)N[C@@H](CSCc2ccccc2)C(=O)O)N1` and give its measured melting point.
181 to 183 °C

Report melting point for `CC(=O)OCCN1CCN(CC#CC2=Cc3ccccc3Sc3ccc(Cl)cc32)CC1` please.
96 to 99 °C

Would you mind telling me what melting point value was observed for `COc1ccc(CN(C)CC=Cc2ccc(NC(=O)c3cccc4c(=O)c5cccc(OC)c5[nH]c34)cc2)cc1OC` ?
200 °C

Entry under review: `O=C(OCc1ccccc1)c1cc2cc([N+](=O)[O-])ccc2[nH]1` . Reported melting point?
192 °C

Please give the measured melting point for this molecule: `O=C(O)COCc1cc2cc(Cl)ccc2n1S(=O)(=O)c1ccccc1`
140 to 142 °C

Reported melting point, molecule Cn1cc(C2=C(c3c4n(c5ccccc35)CCC(C#N)C4)C(=O)OC2=O)c2ccccc21 (centres undefined) : ____
309 to 311 °C

May I ask what melting point has been recorded for CC(=O)c1ccc2c(c1)C(c1ccccn1)CC(C)(C)O2 (centres undefined) ?
102 to 105 °C

Requested field: melting point. Item: `O=C(CCCCOCc1ccccc1)c1ccc([N+](=O)[O-])cc1`
75 °C

If you can, please state the reported melting point value of `FC(F)(F)c1ccc(C=CC(C=Cc2ccc(C(F)(F)F)cc2)=NNC2=NCCCN2)cc1` .
196 to 197 °C

Sample `O=C(/C=C/c1ccc(Cl)cc1)N1CCN(C(=O)c2cc(C(F)(F)F)cc(C(F)(F)F)c2)[C@H](Cc2c[nH]c3ccccc23)C1` — what was its melting point?
125 to 138 °C

---

observable: melting point

Use the examples below as a reference point.
# compound, melting point
rows = [
    ("CC(=O)COC1CC2C3CCC4=CC(=O)CCC4(C)C3(F)C(O)CC2(C)C1(O)C(=O)CO (stereo not drawn)", "203 to 208 °C"),
    ("CC(C)(C)OC(=O)N[C@@H](Cc1ccc(-c2ccccc2)cc1)C(=O)O", "122 to 123 °C"),
]

Let us move to another entry and its melting point.
Given the compound `CCOC(=O)N(c1cccc(C(F)(F)F)c1)c1ccccc1N` , what is its reported melting point?
105 to 108 °C

---

observable: melting point

Solved cases below.
# compound, reported
measured = [
    ("CCOC(C)OC(CCOc1ccc([N+](=O)[O-])cc1)C(F)(F)F (stereo unspecified)", "81 °C"),
    ("CN(C)CCC(Cc1ccccc1C(=O)O)c1ccccc1 (stereo unspecified)", "152 to 154 °C"),
    ("C[C@H]1C(=O)N2[C@H](c3ccc4c(c3)OCO4)c3[nH]c4ccccc4c3C[C@@H]2C(=O)N1C", "219 to 220 °C"),
    ("O=C(Nc1cccc(S(=O)(=O)N2CCCC2)c1)c1cnn2c(C(F)F)cc(-c3ccc(Cl)c(Cl)c3)nc12", "245 °C"),
]

Fill in: melting point of `Cc1ccc2c(=O)[nH]c(N3CCN(C)CC3)cc2c1` is ___
242 to 243 °C

// lookup melting point for CC(C(=O)c1ncn2c1c(=O)n(C(C)C)c1ccccc12)C(=O)C1CC1 (stereo unspecified)
167 to 169 °C

Would you mind telling me what melting point value was observed for COC(=O)C(Cc1ccc(O)c(O)c1)NC(=O)OC(C)(C)C (stereo unspecified) ?
132 to 135 °C

Name the reported melting point value associated with the compound `CCc1c(C)[nH]c(=O)c(CC)c1Oc1cc(C)cc(C)c1`
180 °C

---

observable: melting point

# compound, melting point
data = [
    ("O=C1CCC(N2Cc3c(OCc4ccc(CN5CCC(C(F)(F)F)CC5)cc4)cccc3C2=O)C(=O)N1 (configuration not stated)", "178 to 180 °C"),
    ("Cc1cnc(CNC(=O)c2sc(N3C[C@@H](C)N(Cc4cc(F)cc(F)c4)C3=O)nc2C)cn1", "131 to 132 °C"),
    ("CCC(=O)NC[C@H]1CN(c2ccc(C3CCS(=O)(=O)CC3)c(F)c2)C(=O)O1", "200 to 201 °C"),
]

May I ask what melting point has been recorded for `CC(=O)Nc1cc(N)cc([N+](=O)[O-])c1` ?
204 to 205 °C

Give the measured melting point of CCOC(=O)C1=C(C)NC(=O)N(C(=O)OCC)C1c1ccccc1[N+](=O)[O-] (configuration not stated) .
150 to 152 °C

What does the record list as melting point for `Cn1c(C(F)(F)F)cc(=O)n(-c2ccc3snc(C=O)c3c2)c1=O` ?
193 to 194 °C

Request the reported melting point associated with `CCNP(=O)(Cc1ccc(NC(=O)C2=Cc3cc(C4CCCCC4)ccc3CC2)cc1)NCC`
163 to 165 °C

---

The molecules listed here are annotated with their melting point.

# molecule, melting point
data = [
    ("Oc1ccc(CCNCC(O)c2ccccn2)cc1 (racemic)", "112 to 114 °C"),
]

What does the data say about its melting point? Entry: `CCc1cc2c(c(CC)n1)CCC(=O)N2`
90 to 94 °C

May I ask what melting point has been recorded for `Cc1nn(C)c(C)c1N=C=S` ?
51 °C

Suppose we examine the molecule `CCC(C)(C)N=C(NC#N)Nc1cc(Cl)cc(Cl)c1` ; what melting point value has been reported?
151 to 153 °C

Record request: melting point value, item NCC1COc2cc(Cl)cc(-c3ccccc3F)c2N1 (stereo unspecified)
95 °C

Recorded melting point for `CCNC(=O)c1cccc(F)c1Nc1nc(Nc2cc3c(cc2OC)CCN(CC(=O)N(C)C)CC3)ncc1Cl` , please?
95 to 105 °C

---

# melting point annotations

# compound, observable, reported
records = [
    ("Cc1nc(NC(=O)NS(=O)(=O)c2cccc3c2nnn3C)nc2c1CCO2", "melting point", "234 to 240 °C"),
    ("CN(C)Cc1ccccc1-c1ccc(Br)cc1", "melting point", "60 to 62 °C"),
    ("N#Cc1cccc(C(=O)NC2CCCNC(=O)C2)c1 (stereo not drawn)", "melting point", "221 to 222 °C"),
    ("CCOC(=O)C1(CCCCOc2ccc(C(=O)OC)cc2)Cc2c(OC)c(OC)c(OC)c(OC)c2C1=O (stereo not drawn)", "melting point", "116 to 118 °C"),
]

Fill in: melting point of CS(=O)(=O)Nc1ccc(C(O)CCCNCCC(=O)CCC2CCCC2)cc1 (stereo not drawn) is ___
101 to 102 °C

Sample CC12CCC(O[Si](C)(C)C(C)(C)C)CC1=CC(=O)C1C2CCC2(C)C(O[Si](C)(C)C(C)(C)C)CCC12 (stereo not drawn) — what was its melting point?
99 to 101 °C

Given the entry `CCCc1nn(C)c2c(=O)n(CCOc3ccc(OC(C)(C)C(=O)O)cc3)c(CC)nc12` , report its measured melting point.
108 to 110 °C

Recorded melting point for O=C(Nc1cccc2c1C(=O)c1c-2n[nH]c1C1CCN(C(=O)C2CCCNC2)CC1)NN1CCOCC1 (stereo not drawn) , please?
169 to 170 °C

Look at this compound and give its reported melting point. `CN(C(=O)c1ccc(Cl)c(Cl)c1)c1ccc(Cl)cc1CCC(=O)O`
159 to 160 °C

May I ask what melting point has been recorded for `Cc1nc2c(O)c(C(=O)[C@@H]3OC(C)(C)O[C@H]3c3ccccc3)ccc2n1C1CC1` ?
153 °C

melting point for `Cc1nc2nccc(-c3cccc(C(F)(F)F)c3)n2n1` ?
153 to 154 °C

So what does the record say about melting point for `COc1cc2c(cc1O)CCC(=O)N2Cc1cc(OC)c(OC)c(OC)c1` ?
157 to 158 °C

Which melting point value belongs to O=C1C=C(Br)C(CBr)(NCc2ccccc2)O1 (stereo not drawn) ?
137 to 139 °C

Data request, read-out melting point, for `CN(C)S(=O)(=O)c1ccc2c3c(cccc13)C(NCCCn1ccnc1)=N2`
199 to 201 °C

I have this compound here, `Cc1oc(-c2ccccc2)nc1COc1ccc(Cn2cc(CCC(=O)O)cn2)cc1` , and I need its recorded melting point.
124 to 125 °C

Look at this compound and give its reported melting point. `O=C(O)c1cnc2occc2c1`
274 to 275 °C

Tell me the measured melting point of `COC(=O)CC=C(CC(C)C)C(=O)O` , please.
40 to 45 °C

Requested read-out: melting point. Entry: `CCOCc1nc2c(N)nc3ccccc3c2n1CCCCS(=O)(=O)N1CCCCC1`
185 to 188 °C

This collection of values is drawn from a melting point compilation (Tetko et al.; mined from patent text by program, amines drawn as free bases though some values may be those of a salt).
